Biological target: T1, Full-length human HER3 extracellular domain (ECD) (human, UniProt P21860 20-643)
T1 construct: also called human HER3 ECD; HER-3 ECD full length
T1 sequence (P21860 20-643): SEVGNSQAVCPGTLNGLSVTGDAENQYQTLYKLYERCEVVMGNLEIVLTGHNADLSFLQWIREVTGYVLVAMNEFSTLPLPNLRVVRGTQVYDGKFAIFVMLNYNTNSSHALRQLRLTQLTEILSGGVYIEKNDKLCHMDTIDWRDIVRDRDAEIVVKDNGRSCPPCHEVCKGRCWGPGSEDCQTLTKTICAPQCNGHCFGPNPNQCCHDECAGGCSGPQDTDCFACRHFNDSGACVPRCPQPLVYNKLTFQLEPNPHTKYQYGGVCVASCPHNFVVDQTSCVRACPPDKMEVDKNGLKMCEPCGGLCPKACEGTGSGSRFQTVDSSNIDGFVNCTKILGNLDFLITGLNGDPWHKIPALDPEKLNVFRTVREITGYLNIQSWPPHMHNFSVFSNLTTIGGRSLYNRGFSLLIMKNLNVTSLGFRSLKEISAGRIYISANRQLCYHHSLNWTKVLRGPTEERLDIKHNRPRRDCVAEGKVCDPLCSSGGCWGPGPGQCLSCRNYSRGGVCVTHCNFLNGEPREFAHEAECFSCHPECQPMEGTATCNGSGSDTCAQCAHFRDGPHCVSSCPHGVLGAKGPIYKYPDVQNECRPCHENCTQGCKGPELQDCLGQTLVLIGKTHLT
Assay: BIACORE 3000 SPR, mAb captured by anti-human Fc, ECD as analyte, 25 C
# koff values compiled below
Return type: number; implicit unit s⁻¹.

Please review the entries below; each comes with its answer.
BINDER	RESULT_UNIT	koff
Humanized 15D5 antibody (H4L1) (antibody, human IgG1, V domains shown, Human IgG1; also called h15D5) VH: QVQLVQSGAEVKKPGASVKVSCKASGYTFTDYNMNWVRQAPGQGLEWMGGINPNYGTTVYNQKFKGKVTLTVDTSISTAYMELSRLRSDDTAVYYCARMTTIVPFDYWGQGTTVTVSS VL: DIQMTQSPSSLSASVGDRVTITCRASQDISNYLNWYQQKPGKAPKLLIYYTSTLHSGVPSRFSGSGSGTDYTFTISSLQPEDIATYYCQQGYTLPWTFGGGTKVEIKR	s⁻¹	0.000196
15D5 H2L1 antibody (antibody, V domains shown, Humanized 15D5 variant) VH: QVQLVQSGAEVKKPGASVKVSCKASGYTFTDYNMNWVKQAPGQGLEWIGGINPNYGTTVYNQKFKGKATLTVDQSISTAYMELSRLRSDDTAVYYCARMTTIVPFDYWGQGTTVTVSS VL: DIQMTQSPSSLSASVGDRVTITCRASQDISNYLNWYQQKPGKAPKLLIYYTSTLHSGVPSRFSGSGSGTDYTFTISSLQPEDIATYYCQQGYTLPWTFGGGTKVEIKR	s⁻¹	0.000365
1D9 H6L3 RR antibody (antibody, V domains shown, Humanized RR variant) VH: QVQLVQSGAEVKKPGASVKVSCKASGYTFTSYWMHWVRQAPGQGLEWMGVIDPSDGYSHYNQKFKGKVTLTVDTSISTAYMELSRLRSDDTAVYYCAGGLAGTLDYWGQGTTVTVSS VL: DVQMTQSPSSLSASVGDRVTITCRSSQSIVHSSGNTYLQWYQQKPGKAPKLLIYKVSNRFSGVPSRFSGSGSGTDFTLTISSLQPEDFAVYYCFQGSHVPWTFGQGTKLEIKR	s⁻¹	0.00302
1D9 H2L2 RR antibody (antibody, V domains shown, Humanized RR variant) VH: QVQLVQSGAEVKKPGASVKVSCKASGYTFTSYWMHWVRQAPGQGLEWMGVIDPSDGYSHYNQKFKGRVTMTRDTSISTAYMELSRLRSDDTAVYYCAGGLAGTLDYWGQGTTVTVSS VL: DIQMTQSPSSLSASVGDRVTITCRSSQSIVHSSGNTYLQWFQQKPGKAPKLLIYKVSNRFSGVPSRFSGSGSGTDFTLTISSLQPEDFAVYYCFQGSHVPWTFGQGTKLEIKR	s⁻¹	0.00444
Chimeric 15D5 antibody (antibody, human IgG1, V domains shown, To be rechecked; also called Ch15D5; ch15D5) VH: EFQLQQSGPELVKPGASVKISCKASGYSFTDYNMNWVKQNNGKSLEWIGGINPNYGTTVYNQKFKGKATLTVDQSSSTAYMQLVSLTSEDSAVYYCARMTTIVPFDYWGQGTTLTVSS VL: DIQMTQTTFSLSASLGDRVTISCRASQDISNYLNWYQQKPDGTVKLLIYYTSTLHSGVPSRFSGSGSGTDYFLTIRNLEEEDIATYFCQQGYTLPWTFGGGTKLDIK	s⁻¹	0.00014
15D5 H1L1 antibody (antibody, V domains shown) VH: QFQLVQSGAEVKKPGASVKVSCKASGYSFTDYNMNWVKQAPGQGLEWIGGINPNYGTTVYNQKFKGKATLTVDQSISTAYMELSRLRSDDTAVYYCARMTTIVPFDYWGQGTTVTVSS VL: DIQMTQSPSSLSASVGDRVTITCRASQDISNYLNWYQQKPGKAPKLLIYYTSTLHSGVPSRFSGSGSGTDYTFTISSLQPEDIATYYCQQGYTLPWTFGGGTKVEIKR	s⁻¹	0.000267

Exercise: # input binder: 1D9 H0L7 RR antibody (antibody, V domains shown, Humanized RR variant; captured by anti-human Fc) VH: QVQLVQSGAEVKKPGASVKVSCKASGYTFTSYWMHWVRQAPGQGLEWMGVIDPSDGYSHYNQKFKGRVTMTRDTSISTAYMELSRLRSDDTAVYYCARGLAGTLDYWGQGTTVTVSS VL: DVVMTQSPLSLPVTLGQPASISCRSSQSIVHSSGNTYLQWFQQRPGQSPRRLISKVSNRFSGVPDRFSGSGSGTDFTLKISRVEAEDVGVYYCFQGSHVPWTFGQGTKLEIKR ; wanted: its koff
Key: 0.00195

Exercise: And then 1D9 H6L0 RR antibody (antibody, V domains shown, Humanized RR variant) VH: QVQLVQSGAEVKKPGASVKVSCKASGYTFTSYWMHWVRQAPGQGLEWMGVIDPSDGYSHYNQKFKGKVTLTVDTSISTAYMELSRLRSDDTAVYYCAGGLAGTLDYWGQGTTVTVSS VL: DIQMTQSPSSLSASVGDRVTITCRSSQSIVHSSGNTYLQWYQQKPGKAPKLLIYKVSNRFSGVPSRFSGSGSGTDFTLTISSLQPEDFAVYYCFQGSHVPWTFGQGTKLEIKR , what is it?
Key: 0.00366
